Test system: P. falciparum Dd2 (chloroquine, pyrimethamine and mefloquine drug-resistant strain)
TEST METHOD NOTES: In vitro anti-plasmodial image-based assay, P. falciparum Dd2
Format: cell-based, Plasmodium falciparum
MEASUREMENT CONTEXT: SI = HEK293 IC50/parasite IC50
QUANTITY NAME: SI for Dd2

* N#Cc1ccc(-c2nnc3cncc(OCCc4ccccc4)n23)cc1 | >68
* COc1ccc(C[C@H](N)C(=O)N[C@H]2[C@@H](O)[C@H](n3cnc4c(N(C)C)ncnc43)O[C@@H]2CO)cc1 [Puromycin, reference compound] | 98
* Clc1ccc(-c2nnc3cncc(OCCc4ccccc4)n23)cc1 | >364
* FC(F)Oc1ccc(-c2nnc3c(C(F)F)ncc(OCCc4ccccc4)n23)cc1 | >4
* FC(F)Oc1ccc(-c2nnc3cncc(Cl)n23)cc1 | >2
* FC(F)(F)c1ncc(OCCc2ccccc2)n2c(-c3ccc(Cl)cc3)nnc12 | >8
* FC(F)Oc1ccc(-c2nnc3c(C(F)(F)F)ncc(OCCc4ccccc4)n23)cc1 | >4
* Clc1ccc(-c2nnc3cncc(Cl)n23)cc1 | >4
* N#Cc1ccc(-c2nnc3c(C(F)(F)F)ncc(OCCc4ccccc4)n23)cc1 | >2
* FC(F)c1ncc(OCCc2ccccc2)n2c(-c3ccc(Cl)cc3)nnc12 | >6
* N#Cc1ccc(-c2nnc3cncc(Cl)n23)cc1 | >3
* N#Cc1ccc(-c2nnc3c(C(F)F)ncc(OCCc4ccccc4)n23)cc1 | >1
* CCOc1cncc2nnc(-c3ccc(Cl)cc3)n12 | >27
* FC(F)Oc1ccc(-c2nnc3cncc(OCCc4ccccc4)n23)cc1 | >312
